Molecular target: Cyclic GMP-AMP synthase (Mus musculus)
Assay: inhibitors of Mus musculus cyclic GMP-AMP synthase, initial high-throughput assay, cell-free, RapidFire MS (AID 1259397);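 also: enzyme stimulated by 45 bp dsDNA with ATP and GTP substrates; cGAMP share of summed cGAMP plus half ATP and half GTP signals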
Conditions: recombinant mouse cGAS, cGAMP by RapidFire MS; at 12.5 µM; stronger effect = higher value
About 230 (0.18%) of roughly 130,000 compounds were called active. The list comes from a sample in which actives are over-represented; it also holds close analogues and randomly drawn compounds.
Measured inhibition values are reported for all entries that follow.

| MOLECULE | EXPERIMENTAL TARGET | VALUE UNITS | inhibition |
| --- | --- | --- | --- |
| Cc1ncc(-c2c(-c3ccccc3)ncn2Cc2csc(N)n2)[nH]1 | Cyclic GMP-AMP synthase (Mus musculus) | % | -18.8 |
| CCCN1C(=O)CCc2cc(NC(=O)COC)ccc21 | Cyclic GMP-AMP synthase (Mus musculus) | % | -1.31 |
| COC(=O)CCC(=O)N1CCCC(C(=O)c2ccc(-c3ccccc3)cc2)C1 (configuration not stated) | Cyclic GMP-AMP synthase (Mus musculus) | % | -2.49 |
| Cc1nc2ccc(C(=O)N3CCC4(CC3)Nc3ccccc3C(=O)N4CCO)cc2[nH]1 | Cyclic GMP-AMP synthase (Mus musculus) | % | -0.499 |
| O=C(CCn1c(=O)oc2cc(Cl)ccc21)N1CCN(c2ccccc2Cl)CC1 | Cyclic GMP-AMP synthase (Mus musculus) | % | -7.84 |
| O=C(CCSCc1ccccn1)NCc1ccc(Br)s1 | Cyclic GMP-AMP synthase (Mus musculus) | % | 7.74 |
| CC(C(=O)N1CCCC1)N1CCOC(CN(C)C)C1 (configuration not stated) | Cyclic GMP-AMP synthase (Mus musculus) | % | -1.48 |
| Cc1cc(CN2CCN3C(=O)CNC(=O)C3C2)ccc1N1CCCC1 (configuration not stated) | Cyclic GMP-AMP synthase (Mus musculus) | % | -4.4 |
| CC(C)c1cc(C2CCN(C(=O)CN3CCOC3=O)CC2)[nH]n1 | Cyclic GMP-AMP synthase (Mus musculus) | % | -25.2 |
| O=C1NC(=S)SC1=Cc1ccccc1F | Cyclic GMP-AMP synthase (Mus musculus) | % | 62.6 |
| COC(=O)NC(C)C(=O)NCc1cccnc1Oc1c(C)cccc1C (configuration not stated) | Cyclic GMP-AMP synthase (Mus musculus) | % | -19.5 |
| O=C(O)CCCc1ccc(Br)s1 | Cyclic GMP-AMP synthase (Mus musculus) | % | 92.3 |

----------
Target: Cyclic GMP-AMP synthase (Mus musculus)
Test: inhibitors of Mus musculus cyclic GMP-AMP synthase, initial high-throughput assay, cell-free, RapidFire MS (AID 1259397);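 also: enzyme stimulated by 45 bp dsDNA with ATP and GTP substrates; cGAMP share of summed cGAMP plus half ATP and half GTP signals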
Conditions: recombinant mouse cGAS, cGAMP by RapidFire MS; at 12.5 µM; stronger effect = higher value
About 230 (0.18%) of roughly 130,000 compounds were called active. This is one part of a sample in which actives are shown more often than they occur.
ATTRIBUTE MEASURED: inhibition (%)

| COMPOUND | EXPERIMENTAL TARGET | VALUE UNITS | ENDPOINT RESULT |
| --- | --- | --- | --- |
| Cc1cnn(CC2CCN(C(=O)c3ccccc3C3CCNC3)CC2)c1 (stereo not drawn) | Cyclic GMP-AMP synthase (Mus musculus) | % | 3.82 |
| COc1ccccc1-c1n[nH]c(=S)n1-c1ccc(C)cc1 | Cyclic GMP-AMP synthase (Mus musculus) | % | -2.19 |
| CCn1ccc(C(=O)NCc2cccnc2Oc2ccc(C)nc2)n1 | Cyclic GMP-AMP synthase (Mus musculus) | % | 4.9 |
| CN(Cc1nc(-c2ccc(Br)s2)no1)c1nccs1 | Cyclic GMP-AMP synthase (Mus musculus) | % | -1.14 |
| CC(=O)Nc1ccc(Cl)c(C(=O)NC(CCn2ccnc2)c2ccccc2)c1 (stereo not drawn) | Cyclic GMP-AMP synthase (Mus musculus) | % | -10.1 |
| COc1ccc(C2=CCN(C(=O)c3csc(NC(C)=O)n3)CC2)cc1 | Cyclic GMP-AMP synthase (Mus musculus) | % | -5.03 |
| NC(=O)Cn1nnc(-c2ccccc2Br)n1 | Cyclic GMP-AMP synthase (Mus musculus) | % | -12.5 |
| COc1cccc(N2C[C@@H]3C[C@@H](c4cccs4)N4CCC[C@@]34C2=O)c1 | Cyclic GMP-AMP synthase (Mus musculus) | % | -6.87 |
| O=C(Nc1ccc(F)cc1)Nc1ccc(OC(F)F)cc1 | Cyclic GMP-AMP synthase (Mus musculus) | % | -13.8 |
| Cc1sc2ncn(CC(=O)c3ccc[nH]3)c(=O)c2c1C | Cyclic GMP-AMP synthase (Mus musculus) | % | 14.3 |
| CC1=C(C(=O)N2CCC(N3CCC(C(=O)NCC4CCCO4)CC3)CC2)OCCO1 (stereo not drawn) | Cyclic GMP-AMP synthase (Mus musculus) | % | -2.1 |
| CC(C)Cn1c(CN(Cc2ccccc2)CC2CC2)cnc1S(C)(=O)=O | Cyclic GMP-AMP synthase (Mus musculus) | % | -12.5 |
| C=CCSc1nc2ccccc2n1CCO | Cyclic GMP-AMP synthase (Mus musculus) | % | -7.69 |
| COc1ccc(NC(C)=O)cc1S(=O)(=O)Oc1ccc2c(c1)CCC2 | Cyclic GMP-AMP synthase (Mus musculus) | % | -14.7 |
| CCO[C@H]1COC[C@@H]1NCC(=O)Nc1ccc(Cl)c(OC)c1 | Cyclic GMP-AMP synthase (Mus musculus) | % | -5.39 |
| CCCCN(CCCC)C(=O)c1[nH]c(C)c(C(C)=O)c1C | Cyclic GMP-AMP synthase (Mus musculus) | % | -6.21 |
| Cc1ccc(OCc2nc(C(=O)NC3CC(C)(C)NC(C)(C)C3)cs2)cc1 | Cyclic GMP-AMP synthase (Mus musculus) | % | -17.3 |
| COc1ccccc1OCCCOc1ccc(Cl)cc1Cl | Cyclic GMP-AMP synthase (Mus musculus) | % | -12.4 |
| Cc1ccc(NC(=O)CN2CCCN(c3ccc(C(F)(F)F)cn3)CC2)cc1 | Cyclic GMP-AMP synthase (Mus musculus) | % | -2.92 |
| C=C(C)Cn1c(N2CCN(Cc3cccc(C)c3)CC2)nc2c1c(=O)[nH]c(=O)n2C | Cyclic GMP-AMP synthase (Mus musculus) | % | -6.09 |
| CCCCOC1CC(N(C)Cc2ccc(S(=O)(=O)N(C)C)o2)C1(C)C (stereo not drawn) | Cyclic GMP-AMP synthase (Mus musculus) | % | -31.6 |
| Cc1nc2c(cnn2C(C)C)c(C)c1CCC(=O)NC1CCCC1 | Cyclic GMP-AMP synthase (Mus musculus) | % | -7.8 |
| Cc1noc(CNC(=O)C2CC(=O)N(CC(F)(F)F)C2)n1 (stereo not drawn) | Cyclic GMP-AMP synthase (Mus musculus) | % | 1.05 |
